# subject.of.test: T1, shFcRn (soluble human FcRn) (human, UniProt P55899 24-297; P61769 21-119)
# T1 construct: extracellular domain; Printed only as 'soluble human FcRn'; also called hFcRn (immobilized on a chip)
# experiment.summary: SPR, shFcRn immobilized on chip, antibody as analyte, pH 6.0;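 also: kinetics fitted with a 1:1 Langmuir model, association 200 s and dissociation 600 s, samples diluted in PBST, double-referenced signals, values averaged across three shFcRn-coated cells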
observed.property: koff (s⁻¹)
Field: numeric (s⁻¹). Do not append units.

Worked cases, koff given:
binder	koff (s⁻¹)
HL161AN variant No. 18 (LC:N25Q, HC:C32S Q82T) (antibody, human IgG1, V domains shown, Variable domains only) VL: SYVLTQPPSVSVAPGQTARITCGGQNIGSTSVHWYQQKPGQAPVLVVHDDSDRPSGIPERFSGSNSGNTATLTISRVEAGDEADYYCQVRDSSSDHVIFGGGTKLTVLGQPKAAPSVTL VH: EVQLLESGGGLVQPGGSLRLSCAASEFTFGSSVMTWVRQAPGKGLEWVSVISGSGGSTYYADSVKGRFTISRDNSKNTLYLTMNSLRAEDTAVYYCAKTPWWLRSPFFDYWGQGTLVTVSS	0.000562
HL161AN variant No. 12 (LC:N25Q, HC:C32S) (antibody, V domains shown, also called HL161ANQ; #12 (HL161ANQ)) VL: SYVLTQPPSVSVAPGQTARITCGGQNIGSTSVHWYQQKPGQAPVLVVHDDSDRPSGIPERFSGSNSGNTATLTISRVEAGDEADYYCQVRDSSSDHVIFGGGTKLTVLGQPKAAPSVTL VH: EVQLLESGGGLVQPGGSLRLSCAASEFTFGSSVMTWVRQAPGKGLEWVSVISGSGGSTYYADSVKGRFTISRDNSKNTLYLQMNSLRAEDTAVYYCAKTPWWLRSPFFDYWGQGTLVTVSS	0.000549

Now turn to the next binder.
Name the reported koff value associated with the binder HL161AN variant No. 15 (LC:N25Q, HC:Q82T) (antibody, human IgG1, V domains shown, Variable domains only) VL: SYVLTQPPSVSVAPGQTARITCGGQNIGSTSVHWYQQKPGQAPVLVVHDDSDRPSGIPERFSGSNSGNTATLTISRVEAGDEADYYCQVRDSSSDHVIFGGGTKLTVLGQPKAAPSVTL VH: EVQLLESGGGLVQPGGSLRLSCAASEFTFGSCVMTWVRQAPGKGLEWVSVISGSGGSTYYADSVKGRFTISRDNSKNTLYLTMNSLRAEDTAVYYCAKTPWWLRSPFFDYWGQGTLVTVSS
0.000601
